Source listed as ChEMBL document CHEMBL1127648.

- Species: Rattus norvegicus
- RUN_DESCRIPTION: The compound was evaluated for pEC50 of 5-HT in rat isolated esophageal tunica muscularis mucose
- CONDITION_NOTES: in vitro
RESULT_TYPE: pEC50
Give your answer as a number; write no unit.

The molecule NCCc1c[nH]c2ccc(O)cc12 showed pEC50 equal to 7.91

---

- SUBJECT_OF_TEST: Serotonin 3 (5-HT3) receptor (Rattus norvegicus, UniProt P35563+Q9JJ16)
- Sequence (P35563 whole entry): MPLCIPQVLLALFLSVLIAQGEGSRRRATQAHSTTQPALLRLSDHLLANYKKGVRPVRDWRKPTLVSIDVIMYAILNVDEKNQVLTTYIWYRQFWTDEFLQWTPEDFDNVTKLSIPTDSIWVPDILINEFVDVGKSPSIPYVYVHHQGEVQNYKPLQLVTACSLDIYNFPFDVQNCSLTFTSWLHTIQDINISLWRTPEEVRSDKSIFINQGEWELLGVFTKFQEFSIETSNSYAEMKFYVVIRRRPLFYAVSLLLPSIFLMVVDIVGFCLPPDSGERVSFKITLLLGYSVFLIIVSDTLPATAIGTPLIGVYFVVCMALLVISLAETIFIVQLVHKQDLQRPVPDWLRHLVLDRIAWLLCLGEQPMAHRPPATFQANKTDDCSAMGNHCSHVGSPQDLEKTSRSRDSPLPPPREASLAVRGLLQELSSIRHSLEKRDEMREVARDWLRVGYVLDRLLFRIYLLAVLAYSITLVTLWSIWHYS
- Sequence (Q9JJ16 whole entry): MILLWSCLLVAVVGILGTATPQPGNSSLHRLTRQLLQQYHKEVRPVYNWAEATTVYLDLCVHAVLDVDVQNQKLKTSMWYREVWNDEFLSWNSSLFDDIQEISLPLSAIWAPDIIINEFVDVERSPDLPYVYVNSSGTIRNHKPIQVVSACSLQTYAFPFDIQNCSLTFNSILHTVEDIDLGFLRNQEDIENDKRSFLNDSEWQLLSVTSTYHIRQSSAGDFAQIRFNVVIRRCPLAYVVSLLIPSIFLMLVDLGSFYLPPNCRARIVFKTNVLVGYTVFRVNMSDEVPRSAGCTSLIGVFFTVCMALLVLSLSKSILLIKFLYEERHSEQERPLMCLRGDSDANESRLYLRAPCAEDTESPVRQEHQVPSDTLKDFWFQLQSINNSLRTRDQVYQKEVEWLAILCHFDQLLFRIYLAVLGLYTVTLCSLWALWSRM
- RUN_DESCRIPTION: Inhibition of [3H]BRL-43694 binding to rat 5-hydroxytryptamine 3 receptor
- Type: protein-complex assay
pIC50: −log10 of the molar value.
# pIC50 values compiled below

The molecule CCOc1ccccc1N1CCN(c2nc3ccccc3s2)CC1 showed pIC50 equal to < 5.00

The molecule Clc1cccc(N2CCN(c3nc4ccccc4s3)CC2)c1 showed pIC50 equal to < 5.00

The molecule c1ccc2oc(N3CCN(Cc4ccc5c(c4)OCO5)CC3)nc2c1 showed pIC50 equal to < 5.00

The molecule Oc1ccccc1N1CCN(c2nc3ccccc3o2)CC1 showed pIC50 equal to < 5.00

The molecule COc1ccccc1N1CCN(c2nc3ccccc3o2)CC1 showed pIC50 equal to < 5.00

The molecule c1ccc2sc(N3CCN(Cc4ccc5c(c4)OCO5)CC3)nc2c1 showed pIC50 equal to 6.02

The molecule COc1ccccc1N1CCN(c2nc3ccccc3s2)CC1 showed pIC50 equal to < 5.00

The molecule c1ccc(CN2CCN(c3nc4ccccc4o3)CC2)cc1 showed pIC50 equal to < 5.00

The molecule Oc1ccccc1N1CCN(c2nc3ccccc3s2)CC1 showed pIC50 equal to < 5.00

The molecule c1ccc(CN2CCN(c3nc4ccccc4s3)CC2)cc1 showed pIC50 equal to 7.48

---

- SUBJECT_OF_TEST: Serotonin 1 (5-HT1) receptor (Rattus norvegicus, UniProt P28564+P30940+P19327+P28565)
- RUN_DESCRIPTION: The compound was evaluated for the binding affinity towards 5-hydroxytryptamine 1 using [3H]5-HT as radioligand
- Assay type: protein assay
RESULT_TYPE: IC50

The compound CCOc1ccccc1N1CCN(c2nc3ccccc3s2)CC1 showed IC50 equal to > 10 µM

---

- Species on record: Rattus norvegicus
- RUN_DESCRIPTION: Agonist potency in rat isolated esophageal tunica muscularis mucose.
- Format: functional
RESULT_TYPE: pEC50
// field semantics: pEC50 = negative decimal log of concentration (mol/L)

The molecule c1ccc2sc(N3CCN(Cc4ccc5c(c4)OCO5)CC3)nc2c1 showed pEC50 equal to 6.58

---

# Increase values compiled below
- Tested on: Rattus norvegicus
- RUN_DESCRIPTION: The compound was evaluated for the percentage increase in gastric emptying for a dose of 10 mg/kg perorally in rat
- Assay type: functional, Stomach
- CONDITION_NOTES: route oral

Look over these answered cases.
| COMPOUND | Increase |
| --- | --- |
| CCN(CC)CCNC(=O)c1cc(Cl)c(N)cc1OC [METOCLOPRAMIDE] | 37.1% |
| Oc1ccccc1N1CCN(c2nc3ccccc3o2)CC1 | -30.2% |
| c1ccc(CN2CCN(c3nc4ccccc4s3)CC2)cc1 | 44.6% |
| Oc1ccccc1N1CCN(c2nc3ccccc3s2)CC1 | -14.2% |
| COc1ccccc1N1CCN(c2nc3ccccc3s2)CC1 | -27.5% |

Field Increase (Rattus norvegicus), entry c1ccc(CN2CCN(c3nc4ccccc4o3)CC2)cc1 : 15.1%

Field Increase (Rattus norvegicus), entry COc1cc(N)c(Cl)cc1C(=O)NC1CCN(CCCOc2ccc(F)cc2)CC1OC (stereo not drawn) [CISAPRIDE] : 67%

Field Increase (Rattus norvegicus), entry c1ccc2oc(N3CCN(Cc4ccc5c(c4)OCO5)CC3)nc2c1 : 23.1%
